Provenance of the data: the supplement of paper PMC6555819

Tested on: VDR homodimer (NR concentration 270 nM)
Assay: PBM binding z-score (relative to random genomic background probes); higher = stronger binding; sequences stand for … in GC…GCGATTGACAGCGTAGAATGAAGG
Mark f for PBM binding z-score values under 0.06, and t for everything at or above.

GGAACGAGGGCAAGTTGATAGGAGAGTTTGATGG	t
ATCTCTAGGTAAAGGTAGTTCAGTGAATGCAAAT	t
TCATGTAGATCAACAGGAGGTTAAGAAAGATCGA	t
TCATATAGGTAAACATGTGAAAGTCCGTAAGTTA	t

Textbook exercise: given the entry TAGACTAGGTCAGATCGGGCCAGTATACGCTATA , state whether its PBM binding z-score is greater than or equal to 0.06.
f

Textbook exercise: given the entry TCTTGTAGATCCGCAGGTTAAGAAAGCTGGCCAA , state whether its PBM binding z-score is greater than or equal to 0.06.
f

Textbook exercise: given the entry TCAGACAGGTGAAGGAAACTCAGGTACGCAGTCG , state whether its PBM binding z-score is greater than or equal to 0.06.
t
